Catalogue of IC50 values
# SYSTEM_TESTED: EGFR(L858R/T790M) (Homo sapiens, UniProt P00533, L858R/T790M)
# Construct: purchased from Carna (GST-a.a. 669-1210)
# Sequence (P00533 669-1210 T790M/L858R): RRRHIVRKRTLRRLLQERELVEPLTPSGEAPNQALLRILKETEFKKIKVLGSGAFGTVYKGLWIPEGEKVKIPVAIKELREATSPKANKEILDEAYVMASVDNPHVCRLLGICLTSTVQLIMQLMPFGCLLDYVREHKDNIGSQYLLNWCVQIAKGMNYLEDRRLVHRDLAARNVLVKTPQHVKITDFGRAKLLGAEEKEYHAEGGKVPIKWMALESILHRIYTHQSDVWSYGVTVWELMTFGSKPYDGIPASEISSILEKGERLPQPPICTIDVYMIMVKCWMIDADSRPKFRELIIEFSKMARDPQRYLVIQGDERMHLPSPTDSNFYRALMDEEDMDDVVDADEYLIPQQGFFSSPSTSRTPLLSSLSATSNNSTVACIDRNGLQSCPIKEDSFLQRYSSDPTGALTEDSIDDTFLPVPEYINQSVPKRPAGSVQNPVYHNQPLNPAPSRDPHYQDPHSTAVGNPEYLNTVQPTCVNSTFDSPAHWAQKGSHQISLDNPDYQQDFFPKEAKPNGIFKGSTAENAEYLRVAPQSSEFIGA
# ASSAY_REMARKS: EGFR biochemical assay (HTRF), IC50 determinations
# STUDY_CONDITIONS: EGFR (L858R/T790M) with 90 min pre-incubation; read-out: IC50 (μM) Column B

- COMPOUND: "Cc1cccc(C(=O)Nc2nc3cccc(C)c3n2C2CCCCN(C(=O)/C=C/CN(C)C)C2)c1 (stereo not drawn)"
  IC50: "< 0.001 µM"
- COMPOUND: "Cc1ncc(C(=O)Nc2nc3cccc(C)c3n2C2CCCCN(C(=O)/C=C/CN(C)C)C2)s1 (single isomer, unassigned) [Example 21-8B]"
  IC50: "< 0.001 µM"
- COMPOUND: "Cc1cccc2nc(NC(=O)c3ccnc(F)c3)n(C3CCCCN(C(=O)/C=C/CN(C)C)C3)c12 (stereo not drawn)"
  IC50: "< 0.001 µM"
- COMPOUND: "Cc1cccc2nc(NC(=O)c3ccnc(N4CCCCC4)c3)n(C3CCCCN(C(=O)/C=C/CN(C)C)C3)c12 (stereo not drawn)"
  IC50: "< 0.001 µM"
- COMPOUND: "Cc1cccc2nc(NC(=O)c3ccnnc3)n(C3CCCCN(C(=O)/C=C/CN(C)C)C3)c12 (stereo not drawn)"
  IC50: "< 0.001 µM"
- COMPOUND: "C=CC(=O)N1CCCC[C@@H](n2c(NC(=O)c3cc(C)nc(C)c3)nc3cc(CN4CC[C@@H](F)C4)cc(C)c32)C1"
  IC50: "< 0.001 µM"

Values compiled from patent US9440957B2.
